Origin of measurements: ChEMBL document CHEMBL1125034

# ASSAY SUMMARY: Partition coefficient (logD7.4)
# Format: physicochemical
# RUN PARAMETERS: octanol/water, pH 7.4
VALUE KIND: logD

COMPOUND: O=c1oc(NCCc2ccccc2)nc2ccccc12
logD: 3.2

Consider the compound shown here: NC(=O)[C@H](Cc1ccccc1)NC(=O)[C@@H]1CCCN1c1nc2ccccc2c(=O)o1 What is its recorded logD?
1.2

Consider the compound shown here: CCOC(=O)CCCNc1nc2ccccc2c(=O)o1 What is its recorded logD?
2.3

Consider the compound shown here: COC(=O)[C@H](Nc1nc2ccccc2c(=O)o1)c1ccccc1 What is its recorded logD?
2.6

Consider the compound shown here: CCSc1nc2ccccc2c(=O)o1 What is its recorded logD?
3

Consider the compound shown here: CCc1cc(N)cc2nc(N3CCCC3C(=O)N[C@@H](CC(C)C)C(N)=O)oc(=O)c12 (some centres not stated) What is its recorded logD?
1.6

Consider the compound shown here: O=c1oc(SCc2ccccc2)nc2ccccc12 What is its recorded logD?
3.6

Consider the compound shown here: Cc1ccc2c(=O)oc(NC(C)C)nc2c1C What is its recorded logD?
3.8

Consider the compound shown here: Cc1cccc2nc(C(F)(F)F)oc(=O)c12 What is its recorded logD?
2.9

Consider the compound shown here: CC[C@H](C)[C@H](Nc1nc2ccccc2c(=O)o1)C(=O)OC What is its recorded logD?
2.6

Consider the compound shown here: Cc1cccc2c(=O)oc(C(C)(C)C)nc12 What is its recorded logD?
4

Consider the compound shown here: NC(=O)C1CCCN1c1nc2ccccc2c(=O)o1 (configuration not stated) What is its recorded logD?
0.4
